Reference source for all entries: patent US11992494B2

pIC50: recorded values
- study-system: PAFR (Homo sapiens)
- Sequence (P25105 whole entry): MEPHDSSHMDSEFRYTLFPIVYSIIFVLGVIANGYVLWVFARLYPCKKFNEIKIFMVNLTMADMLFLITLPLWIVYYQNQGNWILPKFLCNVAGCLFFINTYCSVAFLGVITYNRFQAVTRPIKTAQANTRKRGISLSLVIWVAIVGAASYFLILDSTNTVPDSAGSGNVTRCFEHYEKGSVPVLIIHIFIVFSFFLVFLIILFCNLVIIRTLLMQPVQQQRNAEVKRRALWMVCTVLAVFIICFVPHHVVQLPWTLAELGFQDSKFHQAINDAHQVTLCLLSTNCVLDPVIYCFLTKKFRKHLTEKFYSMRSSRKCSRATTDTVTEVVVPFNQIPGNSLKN
- assay-name: cellular HTRF IP1 assay: inhibition of PAFR activation by PAF C-16 ligand (endpoint assay)
- Type: cell-based
- Parameters: expressed in transfected cells; host or cells: HEK293
- conditions-used: HEK293 cells overexpressing human PAFR; PAF ligand 11 nM; Table 2
pIC50: −log10 of the molar value.
metric: pIC50

- Cc1nnc2n1-c1sc3c(c1C(c1ccccc1Cl)=NC21CC1)C[C@H](C(=O)N1CCO[C@@H](C)C1)C3: 8.12
- CCN(C(=O)[C@@H]1Cc2sc3c(c2C1)C(c1ccccc1Cl)=NC1(CC1)c1nnc(C)n1-3)[C@@H]1c2ccccc2C[C@H]1O: 8.44
- Cc1nnc2n1-c1sc3c(c1C(c1ccccc1Cl)=NC21CC1)C[C@H](C(=O)N[C@H]1CCC(F)(F)C1)C3: 8.70
- Cc1nnc2n1-c1sc3c(c1C(c1cc(C#N)ccc1Cl)=NC21CC1)C[C@H](C(=O)N1CCOCC1)C3: 7.08
- Cc1nnc2n1-c1sc3c(c1C(c1ccccc1Cl)=NC21CC1)C[C@H](C(=O)NC1CCc2cnn(C)c2C1)C3 (stereo partly shown): 8.18
- Cc1nnc2n1-c1sc3c(c1C(c1ccccc1Cl)=NC21CC1)C[C@H](C(=O)N1CCOCC12CC2)C3: 8.24
- Cc1nnc2n1-c1sc3c(c1C(c1ccccc1Cl)=NC21CC1)C[C@H](C(=O)N[C@@H]1C[C@H]1C)C3: 8.57
